Test system: rat erythrocytes
Assay method text: Hemolysis assay
Type: cell-based
Where a name gives a salt, the structure may show the parent alone. Square brackets hold non-standard residues; d marks the D form. Peptide text beside a SMILES is read from it. Gly(N(CH2)2(3-indolyl)) = O=C(O)CNCCc1c[nH]c2ccccc12; Nspe = C[C@H](NCC(=O)O)c1ccccc1; Nlys = NCCCCNCC(=O)O
Values of Hmax (100 µM) greater than or equal to 90% map to Criterion met; values below map to Criterion not met.

{"Compound": "C[C@@H](c1ccccc1)N(CC(=O)N(CCCCN)CC(=O)N(CC(=O)N(CC(=O)N(CCCCN)CC(=O)N(CC(=O)N(CC(=O)N(CCCCN)CC(N)=O)[C@@H](C)c1ccccc1)[C@@H](C)c1ccccc1)[C@@H](C)c1ccccc1)[C@@H](C)c1ccccc1)C(=O)CN(C(=O)CN(CCCCN)C(=O)CN(CCc1c[nH]c2ccccc12)C(=O)CNCCc1c[nH]c2ccccc12)[C@@H](C)c1ccccc1 [37-AcOH] (H-[Gly(N(CH2)2(3-indolyl))][Gly(N(CH2)2(3-indolyl))][Nlys][Nspe][Nspe][Nlys][Nspe][Nspe][Nlys][Nspe][Nspe][Nlys]-NH2)", "Class assignment": "Criterion met"}
{"Compound": "C[C@@H](c1ccccc1)N(CC(N)=O)C(=O)CN(C(=O)CN(CCCCN)C(=O)CN(C(=O)CN(C(=O)CN(CCCCN)C(=O)CN(C(=O)CN(C(=O)CN(CCCCN)C(=O)CN(CCc1c[nH]c2ccccc12)C(=O)CN(CCc1c[nH]c2ccccc12)C(=O)CNCCCCN)[C@@H](C)c1ccccc1)[C@@H](C)c1ccccc1)[C@@H](C)c1ccccc1)[C@@H](C)c1ccccc1)[C@@H](C)c1ccccc1 [14-AcOH]", "Class assignment": "Criterion met"}
{"Compound": "C[C@@H](c1ccccc1)N(CC(=O)N(CCCCN)CC(=O)N(CC(=O)N(CC(=O)N(CCCCN)CC(=O)N(CCc1c[nH]c2ccccc12)CC(=O)N(CCc1c[nH]c2ccccc12)CC(N)=O)[C@@H](C)c1ccccc1)[C@@H](C)c1ccccc1)C(=O)CN(CCCCN)C(=O)CN(CCCCN)C(=O)CN(C(=O)CN(C(=O)CNCCCCN)[C@@H](C)c1ccccc1)[C@@H](C)c1ccccc1 [peptoid 30] (H-[Nlys][Nspe][Nspe][Nlys][Nlys][Nspe][Nlys][Nspe][Nspe][Nlys][Gly(N(CH2)2(3-indolyl))][Gly(N(CH2)2(3-indolyl))]-NH2)", "Class assignment": "Criterion not met"}
{"Compound": "C[C@@H](c1ccccc1)N(CC(N)=O)C(=O)CN(C(=O)CN(CCCCN)C(=O)CN(C(=O)CN(C(=O)CN(CCCCN)C(=O)CN(CCc1c[nH]c2ccccc12)C(=O)CN(C(=O)CN(CCCCN)C(=O)CN(C(=O)CN(CCCCN)C(=O)CNCCCCN)[C@@H](C)c1ccccc1)[C@@H](C)c1ccccc1)[C@@H](C)c1ccccc1)[C@@H](C)c1ccccc1)[C@@H](C)c1ccccc1 [peptoid 27]", "Class assignment": "Criterion not met"}
{"Compound": "C[C@@H](c1ccccc1)N(CC(N)=O)C(=O)CN(C(=O)CN(CCCCN)C(=O)CN(C(=O)CN(C(=O)CN(CCCCN)C(=O)CN(C(=O)CN(C(=O)CN(CCCCN)C(=O)CN(CCc1c[nH]c2ccccc12)C(=O)CN(C(=O)CNCCCCN)[C@@H](C)c1ccccc1)[C@@H](C)c1ccccc1)[C@@H](C)c1ccccc1)[C@@H](C)c1ccccc1)[C@@H](C)c1ccccc1)[C@@H](C)c1ccccc1 [10-HCl]", "Class assignment": "Criterion not met"}
{"Compound": "C[C@@H](c1ccccc1)N(CC(=O)N(CCCCN)CC(=O)N(CC(=O)N(CC(=O)N(CCCCN)CC(=O)N(CC(=O)N(CC(=O)N(CCCCN)CC(=O)N(CC(=O)N(CC(=O)N(CCCCN)CC(=O)N(CCCCN)CC(N)=O)[C@@H](C)c1ccccc1)[C@@H](C)c1ccccc1)[C@@H](C)c1ccccc1)[C@@H](C)c1ccccc1)[C@@H](C)c1ccccc1)[C@@H](C)c1ccccc1)C(=O)CNCCc1c[nH]c2ccccc12 [peptoid 61] (H-[Gly(N(CH2)2(3-indolyl))][Nspe][Nlys][Nspe][Nspe][Nlys][Nspe][Nspe][Nlys][Nspe][Nspe][Nlys][Nlys]-NH2)", "Class assignment": "Criterion not met"}
{"Compound": "C[C@@H](c1ccccc1)N(CC(=O)N(CCCCN)CC(=O)N(CC(=O)N(CC(=O)N(CCCCN)CC(=O)N(CC(=O)N(CC(=O)N(CCCCN)CC(=O)N(CCc1c[nH]c2ccccc12)CC(=O)N(CCc1c[nH]c2ccccc12)CC(N)=O)[C@@H](C)c1ccccc1)[C@@H](C)c1ccccc1)[C@@H](C)c1ccccc1)[C@@H](C)c1ccccc1)C(=O)CN(C(=O)CNCCCCN)[C@@H](C)c1ccccc1 [peptoid 11] (H-[Nlys][Nspe][Nspe][Nlys][Nspe][Nspe][Nlys][Nspe][Nspe][Nlys][Gly(N(CH2)2(3-indolyl))][Gly(N(CH2)2(3-indolyl))]-NH2)", "Class assignment": "Criterion met"}
{"Compound": "C[C@@H](c1ccccc1)N(CC(N)=O)C(=O)CN(CCCCN)C(=O)CN(C(=O)CN(CCCCN)C(=O)CN(CCCCN)C(=O)CN(C(=O)CN(C(=O)CN(CCCCN)C(=O)CN(C(=O)CN(C(=O)CN(CCCCN)C(=O)CN(C(=O)CNCCc1c[nH]c2ccccc12)[C@@H](C)c1ccccc1)[C@@H](C)c1ccccc1)[C@@H](C)c1ccccc1)[C@@H](C)c1ccccc1)[C@@H](C)c1ccccc1)[C@@H](C)c1ccccc1 [peptoid 62]", "Class assignment": "Criterion not met"}
